MEASURED METRIC: pKi
Would you please state pKi, meaning minus log10 of the concentration in mol/L, as a bare number?

Qu. Lookup: pKi / Rabbit uPA (Oryctolagus cuniculus, UniProt Q8MHY7) / CCOC(=O)N1CCN(C(=O)[C@H](Cc2cccc(C(=N)N)c2)NS(=O)(=O)c2c(C(C)C)cc(C(C)C)cc2C(C)C)CC1
Ans. 6.10

These entries and their values trace back to patent US11045453B1.
